Molecular target: Macrophage colony-stimulating factor 1 receptor (Homo sapiens)
Sequence (P07333 whole entry): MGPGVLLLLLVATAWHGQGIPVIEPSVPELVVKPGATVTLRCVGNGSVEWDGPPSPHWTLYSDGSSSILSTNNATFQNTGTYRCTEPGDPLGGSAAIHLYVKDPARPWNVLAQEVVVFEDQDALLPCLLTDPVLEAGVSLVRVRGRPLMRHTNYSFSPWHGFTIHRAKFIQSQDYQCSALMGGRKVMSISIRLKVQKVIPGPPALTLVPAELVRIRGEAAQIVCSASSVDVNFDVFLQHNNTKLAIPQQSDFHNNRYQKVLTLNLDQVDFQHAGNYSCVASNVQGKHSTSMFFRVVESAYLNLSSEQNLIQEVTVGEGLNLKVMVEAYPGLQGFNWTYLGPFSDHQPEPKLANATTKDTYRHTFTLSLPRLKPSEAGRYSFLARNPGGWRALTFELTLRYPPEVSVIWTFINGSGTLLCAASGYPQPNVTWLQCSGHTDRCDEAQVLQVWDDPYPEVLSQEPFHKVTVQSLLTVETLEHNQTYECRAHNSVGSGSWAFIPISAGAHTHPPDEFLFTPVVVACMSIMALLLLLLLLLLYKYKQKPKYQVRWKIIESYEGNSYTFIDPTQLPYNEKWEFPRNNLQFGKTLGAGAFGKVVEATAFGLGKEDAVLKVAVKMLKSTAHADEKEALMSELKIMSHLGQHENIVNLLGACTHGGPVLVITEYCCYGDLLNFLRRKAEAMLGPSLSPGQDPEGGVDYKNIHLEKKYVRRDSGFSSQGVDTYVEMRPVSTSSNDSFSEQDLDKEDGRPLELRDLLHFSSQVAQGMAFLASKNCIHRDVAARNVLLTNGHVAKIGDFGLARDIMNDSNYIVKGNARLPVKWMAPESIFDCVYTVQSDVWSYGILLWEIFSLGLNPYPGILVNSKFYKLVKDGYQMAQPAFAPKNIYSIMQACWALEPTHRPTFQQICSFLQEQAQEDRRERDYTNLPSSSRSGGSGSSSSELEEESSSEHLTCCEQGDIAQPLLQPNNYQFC
readoutName: pIC50
Scale: negative log10 of molar concentration, which is what pIC50 denotes.

Task: Please give the measured pIC50 for this compound: CCS(=O)(=O)N1CCN(c2ccc(Nc3ncc(C(N)=O)c(NC4CC4)n3)cc2)CC1 [CERDULATINIB]
Output: 8.40

====

Biological target: Tyrosine-protein kinase JAK2 (Homo sapiens)
Sequence (O60674 whole entry): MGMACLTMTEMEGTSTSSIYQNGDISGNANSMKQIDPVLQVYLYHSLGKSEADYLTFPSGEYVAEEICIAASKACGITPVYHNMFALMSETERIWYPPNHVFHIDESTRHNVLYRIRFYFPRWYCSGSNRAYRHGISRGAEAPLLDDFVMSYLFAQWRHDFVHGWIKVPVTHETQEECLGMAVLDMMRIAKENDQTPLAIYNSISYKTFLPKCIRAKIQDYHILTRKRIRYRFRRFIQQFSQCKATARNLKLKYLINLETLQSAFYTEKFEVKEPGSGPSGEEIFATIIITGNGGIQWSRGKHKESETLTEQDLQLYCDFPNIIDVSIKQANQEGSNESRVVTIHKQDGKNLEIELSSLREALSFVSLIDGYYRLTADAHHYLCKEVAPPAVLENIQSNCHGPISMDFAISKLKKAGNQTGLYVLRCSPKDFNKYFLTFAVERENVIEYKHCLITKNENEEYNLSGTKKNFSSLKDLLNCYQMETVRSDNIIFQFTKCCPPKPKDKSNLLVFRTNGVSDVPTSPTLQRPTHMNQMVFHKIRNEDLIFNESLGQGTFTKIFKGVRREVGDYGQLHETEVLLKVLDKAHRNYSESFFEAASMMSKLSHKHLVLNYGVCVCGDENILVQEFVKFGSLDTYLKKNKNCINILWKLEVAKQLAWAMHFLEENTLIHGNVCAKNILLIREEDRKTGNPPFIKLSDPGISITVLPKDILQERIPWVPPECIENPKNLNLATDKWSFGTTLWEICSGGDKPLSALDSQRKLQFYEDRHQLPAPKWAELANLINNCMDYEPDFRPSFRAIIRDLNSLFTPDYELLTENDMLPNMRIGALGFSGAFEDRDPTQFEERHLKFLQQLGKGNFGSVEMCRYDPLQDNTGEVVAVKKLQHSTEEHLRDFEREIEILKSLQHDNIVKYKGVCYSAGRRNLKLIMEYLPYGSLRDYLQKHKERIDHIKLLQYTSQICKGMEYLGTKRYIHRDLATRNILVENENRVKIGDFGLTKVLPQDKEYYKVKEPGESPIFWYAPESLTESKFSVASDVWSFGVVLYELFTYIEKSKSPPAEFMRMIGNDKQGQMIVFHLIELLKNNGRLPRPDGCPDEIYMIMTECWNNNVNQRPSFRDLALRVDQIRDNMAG
Assay: Inhibition of recombinant human JAK2 (808 to end residues) using biotinylated TK substrate in presence of [33P]ATP
readoutName: IC50 (nM)
Answer in nM, number only, no unit symbol.

Task: # input molecule: C[C@H]1CC(C(=O)CC#N)[C@]12CCN(c1ncnc3[nH]ccc13)C2 (stereo partly specified) ; wanted: its IC50
Output: 2.6
